test system: MCF7 cell line; assay: In vitro cytotoxic activity, MTT method, MCF7; assay type: cell-based, human; conditions: MCF7, 0.781 µMol
I'd appreciate it if you could supply Toxicity % values for the items below.
Lab book: enter the figure in %, no units written.

Input line: What measured Toxicity % goes with CC(=O)C1C(c2ccc(N(C)C)cc2)c2c(C)nc(SCC#N)c(C#N)c2CC1(C)O (stereo not drawn) [Compound 6] ?
Output line: 70.71

Input line: Same question, CC(=O)C1C(c2ccc(N(C)C)cc2)c2c(C)nc(SCC(=O)Nc3ccc(Cl)cc3)c(C#N)c2CC1(C)O (stereo not drawn) [Compound 7c] this time
Output line: 8.333

Input line: Same question, COc1cccc2c1C(=O)c1c(O)c3c(c(O)c1C2=O)C[C@@](O)(C(=O)CO)C[C@@H]3O[C@H]1C[C@H](N)[C@H](O)[C@H](C)O1 [Doxorubicin, reference compound] this time
Output line: 73.56

Input line: Same question, CCOC(=O)CSc1nc(C)c2c(c1C#N)CC(C)(O)C(C(C)=O)C2c1ccc(N(C)C)cc1 (stereo not drawn) [Compound 4] this time
Output line: 7.925

Input line: Same question, CC(=O)C1C(c2ccc(N(C)C)cc2)c2c(C)nc(SCC(N)=O)c(C#N)c2CC1(C)O (stereo not drawn) [Compound 5] this time
Output line: 35.46

Input line: Same question, CSc1nc(C)c2c(c1C#N)CC(C)(O)C(C(C)=O)C2c1ccc(N(C)C)cc1 (stereo not drawn) [Compound 3] this time
Output line: 66.75

----------
tested on: MCF7 cell line; assay: In vitro cytotoxic activity, MTT method, MCF7; type: cell-based, human; details: MCF7, Conc. 6.25 µMol
I'd appreciate it if you could supply Viability % values for the items below.
Lab book: enter the figure in %, no units written.

Input line: # get_value(readout= Viability %, system= MCF7 cell line) for CC(=O)C1C(c2ccc(N(C)C)cc2)c2c(C)nc3sc(C(=O)Nc4ccc(Cl)cc4)c(N)c3c2CC1(C)O (stereo not shown)
Output line: 3.431

Input line: Same question, CC(=O)c1ccc(NC(=O)c2sc3nc(C)c4c(c3c2N)CC(C)(O)C(C(C)=O)C4c2ccc(N(C)C)cc2)cc1 (stereo not shown) this time
Output line: 3.595

Input line: Same question, CC(=O)C1C(c2ccc(N(C)C)cc2)c2c(C)nc3sc(C(=O)Nc4ccc(C)cc4)c(N)c3c2CC1(C)O (stereo not shown) this time
Output line: 39.87

Input line: Same question, CC(=O)C1C(c2ccc(N(C)C)cc2)c2c(C)nc3sc(C(=O)Nc4ccccc4)c(N)c3c2CC1(C)O (stereo not shown) this time
Output line: 5.842

----------
test system: MCF7 cell line; experiment: In vitro cytotoxic activity, MTT method, MCF7; type: cell-based, human; details: MCF7, 0.781 µMol
measured-endpoint: Toxicity % (%)
Lab book: enter the figure in %, no units written.

Input line: # get_value(readout= Toxicity %, system= MCF7 cell line) for CC(=O)C1C(c2ccc(N(C)C)cc2)c2c(C)[nH]c(=S)c(C#N)c2CC1(C)O (stereo not shown)
Output line: 23.53

Input line: Same question, CC(=O)C1C(c2ccc(N(C)C)cc2)c2c(C)nc(SCC(=O)Nc3ccc(C)cc3)c(C#N)c2CC1(C)O (stereo not shown) this time
Output line: 74.92

Input line: Same question, CC(=O)c1ccc(NC(=O)CSc2nc(C)c3c(c2C#N)CC(C)(O)C(C(C)=O)C3c2ccc(N(C)C)cc2)cc1 (stereo not shown) this time
Output line: 52.53

Input line: Same question, CC(=O)C1C(c2ccc(N(C)C)cc2)c2c(C)nc(SCC(=O)Nc3ccccc3)c(C#N)c2CC1(C)O (stereo not shown) this time
Output line: 23.12

----------
tested on: A549 cell line; experiment: In vitro cytotoxic activity, MTT method, A549; conditions: A549, Conc. 12.5 µMol
I'd appreciate it if you could supply Toxicity % values for the items below.
Lab book: enter the figure in %, no units written.

Input line: What measured Toxicity % goes with CC(=O)C1C(c2ccc(N(C)C)cc2)c2c(C)nc3sc(C(=O)Nc4ccccc4)c(N)c3c2CC1(C)O (stereo not shown) ?
Output line: 96.69

Input line: Same question, CCOC(=O)CSc1nc(C)c2c(c1C#N)CC(C)(O)C(C(C)=O)C2c1ccc(N(C)C)cc1 (stereo not shown) this time
Output line: 95.94

Input line: Same question, CC(=O)C1C(c2ccc(N(C)C)cc2)c2c(C)nc3sc(C(=O)Nc4ccc(Cl)cc4)c(N)c3c2CC1(C)O (stereo not shown) this time
Output line: 96.69

Input line: Same question, CC(=O)C1C(c2ccc(N(C)C)cc2)c2c(C)nc(SCC(=O)Nc3ccc(Cl)cc3)c(C#N)c2CC1(C)O (stereo not shown) this time
Output line: 95.94

Input line: Same question, CC(=O)C1C(c2ccc(N(C)C)cc2)c2c(C)nc(SCC(=O)Nc3ccc(C)cc3)c(C#N)c2CC1(C)O (stereo not shown) this time
Output line: 93.85

Input line: Same question, CC(=O)c1ccc(NC(=O)c2sc3nc(C)c4c(c3c2N)CC(C)(O)C(C(C)=O)C4c2ccc(N(C)C)cc2)cc1 (stereo not shown) this time
Output line: 96.41

Input line: Same question, CC(=O)C1C(c2ccc(N(C)C)cc2)c2c(C)nc(SCC(=O)Nc3ccccc3)c(C#N)c2CC1(C)O (stereo not shown) this time
Output line: 91.33

----------
Test system: MCF7 cell line
Test: In vitro cytotoxic activity, MTT method, MCF7
Assay type: cell-based, human
Settings: MCF7, Conc. 1.562 µMol
Experimental: Cell lines: The in vitro human breast cancerous cell line (MCF7), lung cancerous cell lines (A549) and normal cell lines were purchased from Serum and Vaccine formulation in Cairo-Egypt. In vitro cytotoxic activity of all synthesized compounds against two human breast cell line (MCF7) and lung cell lines (A549) was evaluated according to the MTT method. […] Finally read the optical density at 560 nm and subtract background at 620 nm. […]
measured-endpoint: Toxicity % (%)
Lab book: enter the figure in %, no units written.

Input line: What measured Toxicity % goes with CC(=O)c1ccc(NC(=O)c2sc3nc(C)c4c(c3c2N)CC(C)(O)C(C(C)=O)C4c2ccc(N(C)C)cc2)cc1 (stereo not shown) ?
Output line: 93.83

Input line: Same question, CC(=O)C1C(c2ccc(N(C)C)cc2)c2c(C)nc3sc(C(=O)Nc4ccccc4)c(N)c3c2CC1(C)O (stereo not shown) this time
Output line: 65.28

Input line: Same question, CC(=O)C1C(c2ccc(N(C)C)cc2)c2c(C)nc3sc(C(=O)Nc4ccc(Cl)cc4)c(N)c3c2CC1(C)O (stereo not shown) this time
Output line: 85.7

Input line: Same question, CC(=O)C1C(c2ccc(N(C)C)cc2)c2c(C)nc3sc(C(=O)Nc4ccc(C)cc4)c(N)c3c2CC1(C)O (stereo not shown) this time
Output line: 13.36

----------
test system: A549 cell line; assay: In vitro cytotoxic activity, MTT method, A549; settings: A549, Conc. 1.562 µMol
measured-endpoint: Viability % (%)
Lab book: enter the figure in %, no units written.

Input line: # get_value(readout= Viability %, system= A549 cell line) for CSc1nc(C)c2c(c1C#N)CC(C)(O)C(C(C)=O)C2c1ccc(N(C)C)cc1 (stereo not shown)
Output line: 61.81

Input line: Same question, CC(=O)C1C(c2ccc(N(C)C)cc2)c2c(C)nc(SCC#N)c(C#N)c2CC1(C)O (stereo not shown) this time
Output line: 70.3

Input line: Same question, CC(=O)C1C(c2ccc(N(C)C)cc2)c2c(C)nc3sc(C(=O)Nc4ccc(Cl)cc4)c(N)c3c2CC1(C)O (stereo not shown) this time
Output line: 24.26

Input line: Same question, CC(=O)C1C(c2ccc(N(C)C)cc2)c2c(C)nc(SCC(=O)Nc3ccc(Cl)cc3)c(C#N)c2CC1(C)O (stereo not shown) this time
Output line: 31.95

----------
I'd appreciate it if you could supply Viability % values for the items below.
system: A549 cell line; experiment: In vitro cytotoxic activity, MTT method, A549; settings: A549, Conc. 1.562 µMol
Lab book: enter the figure in %, no units written.

Input line: What measured Viability % goes with CC(=O)C1C(c2ccc(N(C)C)cc2)c2c(C)nc3sc(C(=O)Nc4ccc(C)cc4)c(N)c3c2CC1(C)O (stereo not drawn) ?
Output line: 38.58

Input line: Same question, CC(=O)C1C(c2ccc(N(C)C)cc2)c2c(C)nc(SCC(=O)Nc3ccc(C)cc3)c(C#N)c2CC1(C)O (stereo not drawn) this time
Output line: 46.19

Input line: Same question, CCOC(=O)CSc1nc(C)c2c(c1C#N)CC(C)(O)C(C(C)=O)C2c1ccc(N(C)C)cc1 (stereo not drawn) this time
Output line: 37.87

----------
biological target: UniProtKB O00418
measured-endpoint: IC50 (nM)
Lab book: enter the figure in nM, no units written.

Input line: # get_value(readout= IC50, system= UniProtKB O00418) for CC(=O)c1ccc(NC(=O)c2sc3nc(C)c4c(c3c2N)CC(C)(O)C(C(C)=O)C4c2ccc(N(C)C)cc2)cc1 (stereo not shown)
Output line: 689
